# Tested on: CAL-51
# Test details: normalised response (% of control), CellTiter-Glo; higher = more viable cells (100 = DMSO, 0 = benzethonium chloride kill control)
# Details: incubation time: 72 h
Lab note: compare normalised response against 10%. Equal or greater, write 1.0. Smaller, write 0.0.

{"Compound": "CCOc1cc2ncc(C#N)c(Nc3ccc(OCc4ccccn4)c(Cl)c3)c2cc1NC(=O)/C=C/CN(C)C [Neratinib] (1000 nM)", "Target": "CAL-51", "Group": 1.0}
{"Compound": "COc1c(C)cnc(Cn2cnc3c(Cl)nc(N)nc32)c1C [BIIB021] (10000 nM)", "Target": "CAL-51", "Group": 1.0}
{"Compound": "COc1cccc2c1C(=O)c1c(O)c3c(c(O)c1C2=O)C[C@@](O)(C(C)=O)C[C@@H]3O[C@H]1C[C@H](N)[C@H](O)[C@H](C)O1 [Daunorubicin] (1000 nM)", "Target": "CAL-51", "Group": 0.0}
{"Compound": "FC(F)c1nc2ccccc2n1-c1nc(N2CCOCC2)nc(N2CCOCC2)n1 [ZSTK474] (10000 nM)", "Target": "CAL-51", "Group": 1.0}
{"Compound": "CC(=O)O[C@H]1C(=O)[C@@]2(C)[C@H]([C@H](OC(=O)c3ccccc3)[C@]3(O)C[C@H](OC(=O)[C@H](O)[C@@H](NC(=O)c4ccccc4)c4ccccc4)C(C)=C1C3(C)C)[C@]1(OC(C)=O)CO[C@@H]1C[C@@H]2O [Paclitaxel] (1000 nM)", "Target": "CAL-51", "Group": 1.0}
{"Compound": "O=C(c1ccc(OCCN2CCCCC2)cc1)c1c(-c2ccc(O)cc2)sc2cc(O)ccc12 [Raloxifene] (10000 nM)", "Target": "CAL-51", "Group": 1.0}
{"Compound": "COC1=CC(c2cc3ccccc3[nH]2)=N/C1=C\\c1[nH]c(C)cc1C [Obatoclax] (10000 nM)", "Target": "CAL-51", "Group": 0.0}
{"Compound": "CC(C)C[C@H](NC(=O)[C@H](Cc1ccccc1)NC(=O)c1cnccn1)B(O)O [Bortezomib] (1000 nM)", "Target": "CAL-51", "Group": 0.0}
{"Compound": "CS(=O)(=O)CCNCc1ccc(-c2ccc3ncnc(Nc4ccc(OCc5cccc(F)c5)c(Cl)c4)c3c2)o1 [Lapatinib] (1000 nM)", "Target": "CAL-51", "Group": 1.0}
{"Compound": "CCS(=O)(=O)c1cccc(-c2cc(C(=O)NC3CCN(C)CC3)c(C)c3[nH]c4ncc(C)cc4c23)c1 [TAK-901] (1000 nM)", "Target": "CAL-51", "Group": 1.0}
{"Compound": "CN(c1ccccc1CNc1nc(Nc2ccc3c(c2)CC(=O)N3)ncc1C(F)(F)F)S(C)(=O)=O (10000 nM)", "Target": "CAL-51", "Group": 0.0}
{"Compound": "Cc1cc(C(C)Nc2ccccc2)c2nc(N3CCOCC3)cc(=O)n2c1 (configuration not stated) [TGX-221] (10000 nM)", "Target": "CAL-51", "Group": 1.0}

###

// reported normalised viability per item
# System: MDA-MB-436
# Test details: normalised viability (% of control), CellTiter-Blue; higher = more viable cells (about 100 = DMSO control)
# Details: 10 nM; incubation time: 72 h

{"Chemical structure": "CC(C)(C)c1cc(NC(=O)Nc2ccc(-c3cn4c(n3)sc3cc(OCCN5CCOCC5)ccc34)cc2)no1", "normalised viability / %": 110}
{"Chemical structure": "CCOc1cc2ncc(C#N)c(Nc3ccc(OCc4ccccn4)c(Cl)c3)c2cc1NC(=O)/C=C/CN(C)C", "normalised viability / %": 117}
{"Chemical structure": "COc1ncc(-c2ccc3nccc(-c4ccnnc4)c3c2)cc1NS(=O)(=O)c1ccc(F)cc1F", "normalised viability / %": 83}
{"Chemical structure": "CC(=O)O[C@H]1C(=O)[C@@]2(C)[C@H]([C@H](OC(=O)c3ccccc3)[C@]3(O)C[C@H](OC(=O)[C@H](O)[C@@H](NC(=O)c4ccccc4)c4ccccc4)C(C)=C1C3(C)C)[C@]1(OC(C)=O)CO[C@@H]1C[C@@H]2O", "normalised viability / %": 52.2}

###

// reported normalised viability per item
# Tested on: MFM-223
# Test details: normalised viability (% of control), CellTiter-Blue; higher = more viable cells (about 100 = DMSO control)
# Details: 10 nM; incubation time: 72 h

{"Chemical structure": "CC(C)(C)c1cc(NC(=O)Nc2ccc(-c3cn4c(n3)sc3cc(OCCN5CCOCC5)ccc34)cc2)no1", "Scale unit": "%", "normalised viability": 86}
{"Chemical structure": "CC(C)C[C@H](NC(=O)[C@H](Cc1ccccc1)NC(=O)c1cnccn1)B(O)O", "Scale unit": "%", "normalised viability": 38.1}
{"Chemical structure": "COc1ncc(-c2ccc3nccc(-c4ccnnc4)c3c2)cc1NS(=O)(=O)c1ccc(F)cc1F", "Scale unit": "%", "normalised viability": 53.1}
{"Chemical structure": "CCOc1cc2ncc(C#N)c(Nc3ccc(OCc4ccccn4)c(Cl)c3)c2cc1NC(=O)/C=C/CN(C)C", "Scale unit": "%", "normalised viability": 87.9}

###

# Tested on: HCC1143
# Test details: drug sensitivity score (DSS), CellTiter-Glo (DSS (AUC-based score)); higher = stronger drug effect (viability inhibition or cytotoxicity); extreme values may be limits of the assay
# Details: incubation time: 72 h
// reported drug sensitivity score per item

{"Molecule": "FC(F)c1nc2ccccc2n1-c1nc(N2CCOCC2)nc(N2CCOCC2)n1 [ZSTK474]", "Target": "HCC1143", "drug sensitivity score": 6.07}
{"Molecule": "C[C@@]1(C(=O)Nc2ccc(F)nc2)CCCN1c1nc(Nc2cc(C3CC3)n[nH]2)c2cccn2n1", "Target": "HCC1143", "drug sensitivity score": 6.03}
{"Molecule": "O=c1[nH]c(=O)n([C@H]2C[C@H](O)[C@@H](CO)O2)cc1F [Floxuridine]", "Target": "HCC1143", "drug sensitivity score": 0}
{"Molecule": "C[C@@H]1C=C2C(=O)O[C@@H]3CC[C@H](C1)[C@]23O [Galiellalactone]", "Target": "HCC1143", "drug sensitivity score": 0}
{"Molecule": "CN1CCN(c2ccc3nc(-c4c(N)c5c(F)cccc5[nH]c4=O)[nH]c3c2)CC1 [Dovitinib]", "Target": "HCC1143", "drug sensitivity score": 0}
{"Molecule": "CC(C)C[C@H](NC(=O)[C@H](Cc1ccccc1)NC(=O)c1cnccn1)B(O)O [Bortezomib]", "Target": "HCC1143", "drug sensitivity score": 19.3}
{"Molecule": "COC1=C2C[C@@H](C)C[C@H](OC)[C@H](O)[C@@H](C)/C=C(\\C)[C@H](OC(N)=O)[C@@H](OC)/C=C\\C=C(/C)C(=O)NC(=CC1=O)C2=O [Geldanamycin]", "Target": "HCC1143", "drug sensitivity score": 2.36}
{"Molecule": "Cn1cnc2c(F)c(Nc3ccc(Br)cc3F)c(C(=O)NOCCO)cc21 [MEK-162]", "Target": "HCC1143", "drug sensitivity score": 0}

###

# Tested on: CAL-120
# Test details: normalised viability (% of control), CellTiter-Blue; higher = more viable cells (about 100 = DMSO control)
# Details: 100 nM; incubation time: 72 h
normalised viability vs 30%: less than gives Condition met; not less than gives Condition not met.

{"Compound": "CS(=O)(=O)OCCCCOS(C)(=O)=O [Busulfan]", "Target": "CAL-120", "Group": "Condition not met"}
{"Compound": "CC(C)(C)c1cc(NC(=O)Nc2ccc(-c3cn4c(n3)sc3cc(OCCN5CCOCC5)ccc34)cc2)no1 [Quizartinib]", "Target": "CAL-120", "Group": "Condition not met"}
{"Compound": "CC(C)C[C@H](NC(=O)[C@H](Cc1ccccc1)NC(=O)c1cnccn1)B(O)O [Bortezomib]", "Target": "CAL-120", "Group": "Condition met"}
{"Compound": "COc1ncc(-c2ccc3nccc(-c4ccnnc4)c3c2)cc1NS(=O)(=O)c1ccc(F)cc1F", "Target": "CAL-120", "Group": "Condition met"}
{"Compound": "Cn1cnc2c(F)c(Nc3ccc(Br)cc3F)c(C(=O)NOCCO)cc21 [MEK-162]", "Target": "CAL-120", "Group": "Condition not met"}

###

// reported normalised viability per item
# Test system: CAL-85-1
# Test details: normalised viability (% of control), CellTiter-Blue; higher = more viable cells (about 100 = DMSO control)
# Details: 3 nM; incubation time: 72 h
Reported endpoint: normalised viability (%)

{"Compound": "c1ccc(C2CN3CCSC3=N2)cc1 (stereo unspecified)", "Reported value": 104}
{"Compound": "COc1ncc(-c2ccc3nccc(-c4ccnnc4)c3c2)cc1NS(=O)(=O)c1ccc(F)cc1F", "Reported value": 75.9}
{"Compound": "C[C@@]1(C(=O)Nc2ccc(F)nc2)CCCN1c1nc(Nc2cc(C3CC3)n[nH]2)c2cccn2n1", "Reported value": 92}
{"Compound": "CC(=O)O[C@H]1C(=O)[C@@]2(C)[C@H]([C@H](OC(=O)c3ccccc3)[C@]3(O)C[C@H](OC(=O)[C@H](O)[C@@H](NC(=O)c4ccccc4)c4ccccc4)C(C)=C1C3(C)C)[C@]1(OC(C)=O)CO[C@@H]1C[C@@H]2O", "Reported value": 76.9}
{"Compound": "CCCC(CCC)C(=O)O", "Reported value": 86.4}
{"Compound": "COC1=CC(c2cc3ccccc3[nH]2)=N/C1=C\\c1[nH]c(C)cc1C", "Reported value": 81.2}

These measurements were taken from the supplement of paper PMC4862054.
